Sourced from PubChem BioAssay (NCATS)

test system: CP335; assay: qHTS profiling for inhibitors of Plasmodium falciparum proliferation (AID 504749); further: nearly all actives have a fitted effect of over 60% in size; conditions: P. falciparum in erythrocytes, SYBR Green DNA, 72 h; series mostly up to 28.7 µM
Inconclusive results are not listed. Active and inactive are the calls of the source. The call rests on the fitted dose curve; in most records, active means well fitted inhibition curve with a large enough effect; inconclusive means small, poorly fitted or top-dose-only effect; inactive means flat fitted curve, though single readings scatter.
Output constraint: value belongs to active, inactive

Use these answered entries as a reference point.
C[C@@](Cc1ccc(O)c(O)c1)(NN)C(=O)O	inactive
Cc1ncc[nH]1	inactive
CCOC(=O)c1cc(-c2ccccc2)nc2ccc(C)cc12	inactive

Query: Call for entry CC(=O)[C@H]1CC[C@H]2[C@@H]3C=CC4=CC(=O)CC[C@@]4(C)[C@H]3CC[C@]12C :
Response: inactive

Query: Can you check Cc1ccccn1 next?
Response: inactive

Query: Same lookup for Cc1ccc(C(C)(C)c2ccc(C)cc2)cc1 , please.
Response: inactive

Query: And what about the molecule O=C(O)/C=C/c1ccccc1 ?
Response: inactive

Query: Again, but for O=C1c2ccccc2C(=O)C1c1ccc(Cl)cc1
Response: inactive

Query: What would you report for O=C(O)CC/C=C\CC[C@@H]1[C@@H](N2CCCCC2)[C@@H](O)C[C@@H]1OCc1ccc(-c2ccccc2)cc1 ?
Response: inactive

Query: Moving on to O=S(=O)(O)CCCS(=O)(=O)O
Response: inactive

Query: Thanks! And COC(=O)CC[C@H](N)C(=O)O ?
Response: inactive

Query: Then CCOc1ccc(NC(=S)Nc2ccc(OCC)cc2)cc1 ?
Response: inactive

Query: Also, c1ccc2c(c1)Sc1ccccc1N2CCN1CCCC1 please.
Response: active

* * *

biological target: Cytochrome P450 3A4 (Homo sapiens) (UniProt P08684); assay: qHTS Assay for Inhibitors and Substrates of Cytochrome P450 3A4 (AID 884); details: recombinant CYP3A4, Luciferin-PPXE luminescence; series mostly up to 57.1 µM; further: nearly all actives have a fitted effect of over 50% in size
Sequence (P08684 whole entry, looked up): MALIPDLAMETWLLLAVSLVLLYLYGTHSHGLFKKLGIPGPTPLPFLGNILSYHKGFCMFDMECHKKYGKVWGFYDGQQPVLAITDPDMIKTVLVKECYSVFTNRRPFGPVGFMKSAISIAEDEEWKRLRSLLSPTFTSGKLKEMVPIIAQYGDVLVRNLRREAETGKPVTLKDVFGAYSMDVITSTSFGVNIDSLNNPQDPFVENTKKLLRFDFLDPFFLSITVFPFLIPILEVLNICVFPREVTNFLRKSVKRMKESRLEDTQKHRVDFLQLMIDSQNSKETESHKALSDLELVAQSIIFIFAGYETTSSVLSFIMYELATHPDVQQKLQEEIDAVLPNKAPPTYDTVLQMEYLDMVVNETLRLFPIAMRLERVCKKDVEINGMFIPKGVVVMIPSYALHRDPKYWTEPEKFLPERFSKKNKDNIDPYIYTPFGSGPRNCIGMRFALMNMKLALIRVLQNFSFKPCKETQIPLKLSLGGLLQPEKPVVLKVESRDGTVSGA
Inconclusive results are not listed. Active and inactive are the calls of the source. Calls follow the shape of the dose curve; as a rule, active = well fitted inhibition curve with a large enough effect; inconclusive = small, poorly fitted or top-dose-only effect; inactive = no such curve, though single readings can be large or run the other way.
experimental.endpoint: activity change, negative = inhibition

Past entries and their recorded results:
CC(=O)Nc1ccc(OC(=O)c2ccccc2O)cc1	inactive
Cc1ncc[nH]1	inactive
O=C(O)[C@H]1CN(C/C=C/P(=O)(O)O)CCN1	inactive
OC[C@H]1O[C@@H]2O[C@H]3[C@H](O)[C@@H](O)[C@@H](O[C@H]4[C@H](O)[C@@H](O)[C@@H](O[C@H]5[C@H](O)[C@@H](O)[C@@H](O[C@H]6[C@H](O)[C@@H](O)[C@@H](O[C@H]7[C@H](O)[C@@H](O)[C@@H](O[C@H]1[C@H](O)[C@H]2O)O[C@@H]7CO)O[C@@H]6CO)O[C@@H]5CO)O[C@@H]4CO)O[C@@H]3CO	inactive
O=c1n(CC2CO2)c(=O)n(CC2CO2)c(=O)n1CC1CO1 (stereo not drawn)	inactive
COC(=O)c1ccccc1O	inactive

Query: Endpoint output: activity change, negative = inhibition of CC(=O)N=c1sc(S(N)(=O)=O)nn1C . Value?
Response: inactive

Query: Note, next up: Oc1cccc(O)c1O
Response: inactive

Query: Quick one: O.O.O.O.O.O.O.O=S(=O)([O-])[O-].[Co+2]
Response: inactive

Query: Now give it for OCc1ccccc1 too.
Response: inactive

Query: Proceed to CCCCO
Response: inactive

* * *

assay: Drug repurposing screens with cells derived from glioblastoma tumor samples (AID 1345199); settings: GBM patient neurospheres viability, ATP luminescence, 48 h; at 46.1 µM (top of the series); tumour line C; further: nearly all actives have a fitted effect of over 40% in size
Results filed as inconclusive are left out. *1 amine or outer side, *2 acyl side, *3 side chain or, on linkers, in order; H or OH if unused. Where a SMILES comes first, the peptide text is derived from it. Bridges are numbered along the chain shown (N, C = ends). [ ]: non-standard residue; d: D form. The star is where a group is joined. X5 = NC1=N[C@@H]([C@H](N[*:1])C(=O)[*:2])C[C@H](O)N1; ΔAla(Z-3-ureido) = NC(=O)N/C=C(\N)C(=O)O; β3hOrn = NCCC[C@H](N)CC(=O)*; Dap = NC[C@H](N)C(=O)O
Mark Met only when activity, negative = cell killing stays strictly below -10%. Values equal to the cut-off are Not met.

These solved cases illustrate the format of a correct answer.
CC(CCc1ccc(O)cc1)NCC(O)c1ccc(O)cc1 (stereo not given)	Not met
OCC1(CO)COC(C(Cl)(Cl)Cl)OC1	Not met
CCCCCc1ccc(C)cc1O	Met

Query: Could you please tell me whether activity, negative = cell killing recorded for Cc1cc(C)c(NC(=O)C[C@H](CC(=O)O)c2cccc3ccccc23)c(C(=O)N2CCC3(CCCC3)CC2)c1 is less than -10%?
Response: Met

Query: Another molecule to look at: CC(C)CCC[C@@H](C)[C@H]1CC[C@H]2[C@@H]3CC[C@@H]4C[C@H](O)CC[C@]4(C)[C@H]3CC[C@]12C
Response: Not met

Query: Then CN[C@@H]1[C@@H](O)[C@@H](O[C@@H]2[C@@H](O)[C@H](O[C@H]3O[C@H](CN)[C@@H](O)[C@H](O)[C@H]3O)[C@@H](N)C[C@H]2NC(=O)C(O)CN)OC[C@]1(C)O (stereo not given in full) ?
Response: Not met

Query: Proceed to O=S(=O)(O)CC(S)CS (stereo not given)
Response: Met

Query: Can you handle CC(CNC(=O)c1cccnc1)NC(=O)c1cccnc1 (stereo not given) next?
Response: Met

Query: Same question, C=N[C@@H](C(=O)N[C@@H]1C(=O)N2[C@@H]1SC(C)(C)[C@@H]2C(=O)O)c1ccccc1 this time
Response: Met

Query: Repeat for the following molecule: CCOC(=O)Cc1ccc(-c2ccccc2)cc1
Response: Not met

Query: Also NCC[C@H](O)C(=O)N[C@@H]1C[C@H](N)[C@@H](O[C@H]2O[C@H](CN)CC[C@H]2N)[C@H](O)[C@H]1O[C@H]1O[C@H](CO)[C@@H](O)[C@H](N)[C@H]1O , if possible.
Response: Met

Query: Same lookup for CC(=O)N[C@@H](C=O)[C@@H](O)[C@H](O)[C@H](O)CO , please.
Response: Not met

Query: And what about the molecule CCCOC(=O)c1ccccc1O ?
Response: Not met

Query: Cc1c(O)c(=O)ccn1C , same question.
Response: Met

Query: NCCC[C@H](N)CC(=O)N[C@H]1CNC(=O)[C@H]([C@H]2C[C@H](O)NC(N)=N2)NC(=O)/C(=C/NC(N)=O)NC(=O)[C@H](CO)NC(=O)[C@H](CO)NC1=O (β3hOrn-[Dap]SS[ΔAla(Z-3-ureido)][X5]; lactam 1-C) , same question.
Response: Met

Query: Please answer likewise for CC(C)O
Response: Met

Query: Input Cc1ccc(S(=O)(=O)O)cc1C
Response: Not met

Query: Then this molecule: CCC(=O)OC(OP(=O)(CCCCc1ccccc1)CC(=O)N1C[C@H](C2CCCCC2)C[C@H]1C(=O)O)C(C)C (stereo not given in full)
Response: Met

Query: Likewise for c1ccc2cc(C3=NCCN3)ccc2c1 ?
Response: Met
